meta.source: patent US6869957B1

target: NK-1 receptor (Homo sapiens, UniProt P25103); construct: endogenous in cells; test: NK-1 Receptor Binding Assay (125I-labeled substance P, IM9 cells); settings: inhibits fifty percent of binding of 125I-substance P to IM9 cells
Sequence (P25103 whole entry): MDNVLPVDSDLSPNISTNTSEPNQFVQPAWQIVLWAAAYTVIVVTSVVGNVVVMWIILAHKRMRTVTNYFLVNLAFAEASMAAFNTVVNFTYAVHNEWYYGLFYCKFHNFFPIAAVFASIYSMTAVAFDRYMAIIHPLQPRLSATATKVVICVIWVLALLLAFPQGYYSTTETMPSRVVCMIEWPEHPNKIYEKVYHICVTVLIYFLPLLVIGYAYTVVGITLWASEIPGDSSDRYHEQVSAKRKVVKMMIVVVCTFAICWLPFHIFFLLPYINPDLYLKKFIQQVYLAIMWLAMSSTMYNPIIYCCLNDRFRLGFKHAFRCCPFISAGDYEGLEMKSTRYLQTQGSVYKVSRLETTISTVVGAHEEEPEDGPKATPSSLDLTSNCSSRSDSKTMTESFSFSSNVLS
observable: pIC50
In simple prose, pIC50 is minus the logarithm base ten of a concentration in moles per litre.

Examples from the recorded data:
molecule: CC(C)(C)OC(=O)NCC(Cc1c[nH]c2ccccc12)NC(=O)CN1CCN(c2ccccc2)CC1 (stereo not shown)
observable: pIC50
obs value: 5.85

molecule: COc1ccccc1CN(CC(Cc1c[nH]c2ccccc12)NC(=O)CN1CCc2ccccc21)C(C)=O (stereo not shown)
observable: pIC50
obs value: 7.13

q: Could you please provide reported pIC50 for CC(=O)N(Cc1ccccc1Cl)CC(Cc1c[nH]c2ccccc12)NC(=O)CN1CCC(N2CCCCC2)CC1 (stereo not shown) [Example 48] ? Thanks!
a: 9.62

q: Return pIC50 for the following molecule: CC(=O)N(Cc1ccccc1Cl)CC(Cc1c[nH]c2ccccc12)NC(c1ccccc1)(c1ccccc1)c1ccccc1 (stereo not shown)
a: 7.17
